- measuredTarget: Soybean lipoxygenase (Type I-B) (Glycine max)
- Construct: purchased Merck (KGaA, Darmstadt, Germany)
- Sequence (P08170 whole entry): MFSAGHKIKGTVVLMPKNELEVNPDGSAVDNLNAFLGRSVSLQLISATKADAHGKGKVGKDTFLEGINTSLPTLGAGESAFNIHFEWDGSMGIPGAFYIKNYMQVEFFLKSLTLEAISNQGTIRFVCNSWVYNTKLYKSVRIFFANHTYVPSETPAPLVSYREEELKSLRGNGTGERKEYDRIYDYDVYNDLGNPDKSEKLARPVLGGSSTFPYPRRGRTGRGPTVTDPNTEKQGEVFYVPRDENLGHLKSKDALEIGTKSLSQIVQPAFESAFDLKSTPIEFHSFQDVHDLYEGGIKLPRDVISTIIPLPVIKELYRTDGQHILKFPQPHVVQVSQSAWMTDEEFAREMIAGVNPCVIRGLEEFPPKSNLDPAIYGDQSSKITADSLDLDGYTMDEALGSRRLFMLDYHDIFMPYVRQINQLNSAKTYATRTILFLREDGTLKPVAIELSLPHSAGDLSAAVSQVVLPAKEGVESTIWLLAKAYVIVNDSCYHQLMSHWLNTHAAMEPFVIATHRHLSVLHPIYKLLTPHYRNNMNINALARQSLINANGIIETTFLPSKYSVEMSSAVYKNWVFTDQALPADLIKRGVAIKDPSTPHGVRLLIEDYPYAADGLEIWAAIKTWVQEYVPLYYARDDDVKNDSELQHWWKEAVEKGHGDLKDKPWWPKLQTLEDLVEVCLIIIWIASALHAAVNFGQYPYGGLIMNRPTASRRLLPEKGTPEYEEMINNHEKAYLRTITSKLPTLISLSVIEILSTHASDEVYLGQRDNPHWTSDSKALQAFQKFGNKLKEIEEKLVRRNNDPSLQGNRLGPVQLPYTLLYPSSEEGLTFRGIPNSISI
- assayComment: In vitro LOX inhibition assay
- Assay type: biochemical
- reportedConditions: 100 µM; read-out: Anti-LOX Activity (%)
Give inhibition at 100 µM for every item shown.
Lab book: enter the figure in %, no units written.

Exercise: Name the recorded inhibition at 100 µM of the molecule listed here: C/C(NNC(=O)c1ccc(O)c(O)c1O)=C1\C(=O)Oc2ccccc2C1=O
Key: 96.1

Exercise: Name the recorded inhibition at 100 µM of the molecule listed here: C/C(NNC(=O)c1cc(O)c(O)c(O)c1)=C1\C(=O)Oc2ccccc2C1=O
Key: 95.2

Exercise: Name the recorded inhibition at 100 µM of the molecule listed here: CC(=O)c1c(O)c2ccccc2oc1=O [3AcHyC, 3-acetyl-4-hydroxycoumarin]
Key: 81.2

Exercise: Name the recorded inhibition at 100 µM of the molecule listed here: NNC(=O)c1cc(O)c(O)c(O)c1 [H-2, 3,4,5-trihydroxybenzohydrazide]
Key: 91.9

Exercise: Name the recorded inhibition at 100 µM of the molecule listed here: NNC(=O)c1ccc(O)c(O)c1O [H-1, 2,3,4-trihydroxybenzohydrazide]
Key: 73.5
